system: Malme-3M; assay: Growth inhibition of human MALME-3M cells; type: functional
Parameter GI50: see the listing below.
measurement_type: GI50

>>> print(df.to_string())
                  compound_structure_string  obs_value
0  Cc1cc(S(=O)(=O)Nc2nc3cc(-c4ccsc4)sc3c(=O)n2Cc2ccco2)c(S)cc1Cl   > 100 µM
1  Cc1cc(S(=O)(=O)Nc2nc3cc(-c4ccc(Cl)cc4)sc3c(=O)n2Cc2ccccc2)c(S)cc1Cl   > 100 µM
2  Cc1cc(S(=O)(=O)Nc2nc3ccsc3c(=O)n2Cc2ccccc2)c(S)cc1Cl    19.9 µM
3  Cc1cc(S(=O)(=O)Nc2nc3cc(-c4ccccc4)sc3c(=O)n2Cc2ccccc2)c(S)cc1Cl   > 100 µM
